biological target: T. cruzi GDP-MP (Trypanosoma cruzi); test: high-substrate configuration GDP-MP biochemical assay; conditions: GDP-MP, high-substrate configuration; repurchased material; n=3
Recorded IC50 for the following molecules
PROPERTY: IC50 (µM)

{"columns": ["SMILES_STRING", "PROPERTY", "ENDPOINT_VALUE"],
 "data": [
  ["CC(=O)OCc1cc(-c2csc(N)n2)ccc1O", "IC50", 316],
  ["c1ccn2c(CNCCCN3CCC3)cnc2c1", "IC50", 794]
]}

* * *

Recorded pIC50 for the following compounds
biological target: T. cruzi PMM and GDP-MP enzymes (Trypanosoma cruzi); assay: standard configuration PMM-GDP-MP biochemical assay; details: library stock material, mean n=2
Sequence (Q4CMK4 entry or part of it): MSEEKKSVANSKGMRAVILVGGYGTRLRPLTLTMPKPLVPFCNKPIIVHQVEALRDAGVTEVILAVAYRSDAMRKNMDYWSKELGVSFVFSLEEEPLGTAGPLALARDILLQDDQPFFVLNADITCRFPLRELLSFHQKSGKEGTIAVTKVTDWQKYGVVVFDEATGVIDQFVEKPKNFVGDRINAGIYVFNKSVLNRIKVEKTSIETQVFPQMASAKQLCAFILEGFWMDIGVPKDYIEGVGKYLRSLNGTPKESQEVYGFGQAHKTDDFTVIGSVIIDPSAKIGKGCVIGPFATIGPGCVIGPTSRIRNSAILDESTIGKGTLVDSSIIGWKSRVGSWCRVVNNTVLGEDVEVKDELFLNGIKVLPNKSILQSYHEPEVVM
Sequence (Q4E4A3 entry or part of it, further chain): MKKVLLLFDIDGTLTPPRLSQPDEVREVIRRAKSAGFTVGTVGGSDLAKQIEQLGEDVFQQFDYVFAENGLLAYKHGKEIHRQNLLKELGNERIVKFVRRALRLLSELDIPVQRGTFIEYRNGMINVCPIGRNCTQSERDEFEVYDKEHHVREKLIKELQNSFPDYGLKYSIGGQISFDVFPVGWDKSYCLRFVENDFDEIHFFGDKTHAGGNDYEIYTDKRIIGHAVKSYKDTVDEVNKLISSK

{"columns": ["COMPOUND", "pIC50"],
 "data": [
  ["N[C@H]1CCN(CCCOc2ccc(C(=O)O)cc2)C1", "4.0 (2)"],
  ["c1ccn2c(CNCCCN3CCC3)cnc2c1", "3.6 (2)"],
  ["CC(=O)OCc1cc(-c2csc(N)n2)ccc1O", "3.5 (2)"],
  ["CC(C)C(C(=O)O)N1C(=O)C=CC1=O (stereo not shown)", "4.9 (2)"]
]}

* * *

target: T. cruzi GDP-MP (Trypanosoma cruzi, UniProt Q4CMK4); experiment: standard configuration GDP-MP biochemical assay; conditions: library stock material, n=1, read-out: pIC50 (converted)
Sequence (Q4CMK4 entry or part of it): as the sequence (Q4CMK4 entry or part of it) above
Recorded IC50 for the following compounds
PROPERTY: IC50 (µM)

{"columns": ["COMPOUND", "TEST_TARGET", "QUAL", "ENDPOINT_VALUE"],
 "data": [
  ["CC(C)C(C(=O)O)N1C(=O)C=CC1=O (stereo not shown)", "T. cruzi GDP-MP (Trypanosoma cruzi, UniProt Q4CMK4)", "=", 25.1],
  ["c1ccn2c(CNCCCN3CCC3)cnc2c1", "T. cruzi GDP-MP (Trypanosoma cruzi, UniProt Q4CMK4)", ">", 1000],
  ["N[C@H]1CCN(CCCOc2ccc(C(=O)O)cc2)C1", "T. cruzi GDP-MP (Trypanosoma cruzi, UniProt Q4CMK4)", "=", 158],
  ["CC(=O)OCc1cc(-c2csc(N)n2)ccc1O", "T. cruzi GDP-MP (Trypanosoma cruzi, UniProt Q4CMK4)", "=", 158]
]}
